Attribution: patent US20250074997A1

In this section, each of the binders is paired with its reported S/N ratio.
# Target Or Test System: T1, UPAR-His recombinant protein (UniProt Q03405 23-303)
# T1 construct: range 23-303; Expressed in 293 cells, purified on Ni-NTA; Biotinylated in the uPA ELISA; also called UPAR-His antigen; biotinUPAR-His; not shown: C-terminal His tag
# T1 sequence (Q03405 23-303 limits assumed): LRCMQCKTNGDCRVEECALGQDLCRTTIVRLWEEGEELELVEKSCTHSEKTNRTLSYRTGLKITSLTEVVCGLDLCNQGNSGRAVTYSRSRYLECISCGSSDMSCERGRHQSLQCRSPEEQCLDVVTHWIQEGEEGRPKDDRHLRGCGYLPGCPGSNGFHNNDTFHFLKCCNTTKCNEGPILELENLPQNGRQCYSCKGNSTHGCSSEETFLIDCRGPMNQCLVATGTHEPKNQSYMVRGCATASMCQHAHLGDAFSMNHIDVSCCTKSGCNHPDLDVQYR
# Test Name: phage ELISA, plate coated with UPAR-His, HRP-anti-M13

{"Binder": "phage mono clone 1-F10 (VHH, the phage coat fusion part is not described) VHH: QVQLVESGGGLVQPGGSLRLSCAASGSILSIRAVGWYRQAPGKQRELVALITSDGTTHYALSVKGRFTISRDNAKTTVYLQMNSLKPEDTAVYYCNREDYARRYWGQGTQVTVSS", "S/N ratio": "> 5"}
{"Binder": "phage mono clone 1-H2 (VHH, the phage coat fusion part is not described) VHH: QVQLVESGGGLVQPGGSLRLSCAASGSTLDYYAIAWFRQAPGKGREGVSCISSSGGRTNYADSVKGRFTVSRDNVKNTVYLQMNSLKPEDTAVYNCAAGGDLSCYGTPTSIWQYDLWGQGTQVTVAS", "S/N ratio": "> 5"}

Memo: phage mono clone 3-E10 (VHH, the phage coat fusion part is not described) VHH: AVQLVDSGGGLVQPGGSLRLSCAASGFTFSSYAMGWARQVPGKGLEWVSIIYRDGNTYYTDSVKGRFTISRDNAKNTVYLQMNSLKPEDTAVYYCAPVETVAARRRDYWGQGTQVNVSS , reported S/N ratio: > 5
